system: SW480; test: TCF/Wnt firefly luciferase reporter signal relative to plate median (fraction of plate median); higher = higher Wnt reporter signal; details: 5 µM; treatment time 24 h; reporter: 7TFP
Measured TCF/Wnt firefly luciferase reporter signal accompanies every entry in the list below.
// return just the number, without any unit appended

Consider the following illustrative entries.
structure_smiles	experimental_result
NCCCCCC(=O)O	1.01
CC1(C)C=Cc2c(cc3occ(-c4ccc5c(c4)OCO5)c(=O)c3c2O)O1	1
Cc1nnc(NS(=O)(=O)c2ccc(N)cc2)s1	0.981
COc1ccc(-c2oc3cc(O[C@@H]4O[C@H](CO)[C@@H](O)[C@H](O)[C@H]4O)c(OC)c(O)c3c(=O)c2OC)cc1O	1.02
COc1c2ccoc2cc2oc(=O)ccc12	1.01

From here, focus on the item given below.
[in] Item C=CCc1ccc(OC(=O)c2ccccc2)c(OC)c1 has what recorded TCF/Wnt firefly luciferase reporter signal?
[out] 1

---

system: DLD1; assay: TCF/Wnt firefly luciferase reporter signal relative to plate median (fraction of plate median); higher = higher Wnt reporter signal; details: 5 µM; treatment time 24 h; reporter: 7TFP
Measured TCF/Wnt firefly luciferase reporter signal accompanies every entry in the list below.
// return just the number, without any unit appended

Consider the following illustrative entries.
compound	experimental_result
CC1(C)CC[C@]2(C(=O)O)CC[C@]3(C)C(=CCC4[C@@]5(C)CC[C@@H](O)C(C)(C)C5CC[C@]43C)C2C1 (stereo not given in full)	0.955
Nc1ccc(C(=O)O)cc1	1.03
Cc1onc(-c2ccccc2)c1C(=O)N[C@@H]1C(=O)N2[C@@H]1SC(C)(C)[C@@H]2C(=O)O	1.21
CCCCCCCCCCCCC[N+](C)(C)Cc1ccccc1	0.725

From here, focus on the item given below.
[in] Item O=C(CCBr)N1CCN(C(=O)CCBr)CC1 has what recorded TCF/Wnt firefly luciferase reporter signal?
[out] 1.03

---

test system: SW480; experiment: cell viability (CellTiter-Glo) relative to plate median (fraction of plate median); higher = more viable cells; conditions: 5 µM; treatment time 24 h; reporter: 7TFP
Response field label takes yes when cell viability is strictly below 1 and no in all other cases.

Answered cases to consult:
structure_smiles	assigned_category
CN1C(C(=O)Nc2ccccn2)=C(O)c2sccc2S1(=O)=O	yes
N[C@@H](CC(=O)N1CCn2c(nnc2C(F)(F)F)C1)Cc1cc(F)c(F)cc1F	yes

# next compound below
[in] cell viability under 1? Item: COc1c2occc2cc2ccc(=O)oc12
[out] no

---

test system: DLD1; assay: TCF/Wnt firefly luciferase reporter signal relative to plate median (fraction of plate median); higher = higher Wnt reporter signal; settings: 5 µM; treatment time 24 h; reporter: 7TFP
Label rule, in plain words: TCF/Wnt firefly luciferase reporter signal of 1 and up is true, under 1 is false.

[in] Please check the record COc1cc2c(cc1OC)[C@@H]1Cc3ccc(OC)c(OC)c3CN1CC2 and state if its TCF/Wnt firefly luciferase reporter signal is at or above 1.
[out] true

[in] Please check the record C/C(=C\C(=O)OCCCCCCCCC(=O)O)C[C@@H]1OC[C@H](C[C@@H]2O[C@H]2[C@@H](C)[C@H](C)O)[C@@H](O)[C@H]1O and state if its TCF/Wnt firefly luciferase reporter signal is at or above 1.
[out] false

[in] Please check the record Cc1ccc(/C(=C\CN2CCCC2)c2ccccn2)cc1 and state if its TCF/Wnt firefly luciferase reporter signal is at or above 1.
[out] false

---

Measured cell viability accompanies every entry in the list below.
tested on: SW480; assay: cell viability (CellTiter-Glo) relative to plate median (fraction of plate median); higher = more viable cells; conditions: 5 µM; treatment time 24 h; reporter: 7TFP
// return just the number, without any unit appended

structure_smiles	reported_metric	experimental_result
C[C@H]1COc2c(N3CCN(C)CC3)c(F)cc3c(=O)c(C(=O)O)cn1c23	cell viability	0.984
O=c1oc2ccccc2c(O)c1Cc1c(O)c2ccccc2oc1=O	cell viability	1.01
CC1(C)O[C@@H]2C[C@H]3[C@@H]4C[C@H](F)C5=CC(=O)C=C[C@]5(C)[C@@]4(F)[C@@H](O)C[C@]3(C)[C@]2(C(=O)CO)O1	cell viability	0.975

From here, focus on the item given below.
[in] Item Cc1cccc(N(C)C(=S)Oc2ccc3ccccc3c2)c1 has what recorded cell viability?
[out] 0.987

---

system: SW480; assay: cell viability (CellTiter-Glo) relative to plate median (fraction of plate median); higher = more viable cells; details: 5 µM; treatment time 24 h; reporter: 7TFP
reported_metric: cell viability
// return just the number, without any unit appended

Consider the following illustrative entries.
molecule	study_system	cell viability
Nc1cc(N2CCCCC2)nc(N)[n+]1[O-]	SW480	1
N/C(=N\C(=O)c1nc(Cl)c(N)nc1N)NCc1ccccc1	SW480	0.998
O=c1ccc2ccccc2o1	SW480	0.976

From here, focus on the item given below.
[in] Item C=CCSCC(N)C(=O)O (stereo not drawn) has what recorded cell viability?
[out] 1.01

---

system: HCT116; assay: cell viability (CellTiter-Glo) relative to plate median (fraction of plate median); higher = more viable cells; conditions: 5 µM; treatment time 24 h; reporter: TCF4/Wnt
Measured cell viability accompanies every entry in the list below.
// return just the number, without any unit appended

compound	cell viability
CC(=O)O[C@H]1CC[C@@]2(C)[C@H](CC[C@@H]3[C@@H]2CC[C@]2(C)[C@@H]4[C@H](C[C@@H]32)O[C@]2(CC[C@@H](C)CO2)[C@H]4C)C1	0.979

[in] Item COC(=O)[C@@H]1OC(=O)C2OC23[C@@]1(C)CCC1[C@]2(C)C(C[C@@H](O)[C@]13C)C(C)(C)[C@H](OC(C)=O)C[C@@H]2OC(C)=O (stereo partly drawn) has what recorded cell viability?
[out] 1.01

[in] Item NC[C@H]1O[C@H](O[C@H]2[C@H](O)[C@@H](O[C@H]3O[C@H](CO)[C@@H](O)[C@H](N)[C@H]3O)[C@H](N)C[C@@H]2N)[C@H](N)[C@@H](O)[C@@H]1O has what recorded cell viability?
[out] 0.997

---

Measured cell viability accompanies every entry in the list below.
tested on: SW480; assay: cell viability (CellTiter-Glo) relative to plate median (fraction of plate median); higher = more viable cells; settings: 10 µM; treatment time 24 h; reporter: 7TFP
Structures can show the parent of a compound that is named as a salt.
// return just the number, without any unit appended

Consider the following illustrative entries.
compound	cell viability
CCN(CC)CCNC(=O)c1c(C)[nH]c(/C=C2\C(=O)Nc3ccc(F)cc32)c1C [Sunitinib Malate (Sutent)]	1.02
COc1ccc(-c2cc3c(C)nc(N)nc3n([C@H]3CC[C@H](OCCO)CC3)c2=O)cn1	1.1
Cc1cc(Nc2cc(CN3CCOCC3)c3nc(C)c(Cc4ccc(Cl)cc4F)n3n2)n[nH]1	0.781
C#Cc1cccc(Nc2ncnc3cc(OCCOC)c(OCCOC)cc23)c1 [Erlotinib HCl]	1
O=C(NOC[C@H](O)CO)c1ccc(F)c(F)c1Nc1ccc(I)cc1F	1.11
CNC(=O)c1cc(Oc2ccc(NC(=O)Nc3cc(C(C)(C)C)nn3-c3ccc4ncccc4c3)c(F)c2)ccn1 [DCC-2036 (Rebastinib)]	1.08

[in] Item COc1cc(Nc2ncc3c(n2)-c2ccc(Cl)cc2C(c2c(F)cccc2OC)=NC3)ccc1C(=O)O has what recorded cell viability?
[out] 0.943

[in] Item C[C@@H](N)[C@H]1CC[C@H](C(=O)Nc2ccncc2)CC1 has what recorded cell viability?
[out] 1.04

---

Measured cell viability accompanies every entry in the list below.
test system: DLD1; assay: cell viability (CellTiter-Glo) relative to plate median (fraction of plate median); higher = more viable cells; settings: 5 µM; treatment time 24 h; reporter: 7TFP
// return just the number, without any unit appended

Consider the following illustrative entries.
molecule	cell viability
N[C@H]1C(O)O[C@H](CO)[C@@H](O)[C@@H]1O (stereo not given in full)	0.973
COc1ccc(-c2cc(=O)c3cc(OC)ccc3o2)cc1	0.967
CC(=O)Oc1ccccc1C(=O)O	1.01
NC(=O)c1cnccn1	0.988

[in] Item COC(=O)[C@@]1(C)CCC[C@]2(C)c3ccc(O)c(C(C)C)c3CCC12 (stereo not given in full) has what recorded cell viability?
[out] 1.03

---

test system: SW480; experiment: TCF/Wnt firefly luciferase reporter signal relative to plate median (fraction of plate median); higher = higher Wnt reporter signal; conditions: 5 µM; treatment time 24 h; reporter: 7TFP
Label rule, in plain words: TCF/Wnt firefly luciferase reporter signal of 1 and up is condition met, under 1 is condition not met.

molecule	assigned_category
COc1c(O)cc2oc3cc(O)c(CC=C(C)C)c(O)c3c(=O)c2c1CC=C(C)C	condition not met
CO[C@H]1C=C[C@@]23c4cc5c(cc4CN(C[C@@H]2O)[C@H]3C1)OCO5	condition not met
CCOc1ccc2nc3cc(N)ccc3c(N)c2c1	condition not met

[in] Please check the record Cc1cc2cc3c(C)cc(=O)oc3c(C)c2o1 and state if its TCF/Wnt firefly luciferase reporter signal is at or above 1.
[out] condition not met

[in] Please check the record CCCCC1=NC2(CCCC2)C(=O)N1Cc1ccc(-c2ccccc2-c2nnn[nH]2)cc1 and state if its TCF/Wnt firefly luciferase reporter signal is at or above 1.
[out] condition not met

[in] Please check the record CCN(CC)CCOC(=O)C(c1ccccc1)C1CCCCC1 (stereo not drawn) and state if its TCF/Wnt firefly luciferase reporter signal is at or above 1.
[out] condition met

[in] Please check the record CC(=O)OC1CC[C@@]2(C)C(CC[C@H]3[C@@H]4CC=C(C(C)=O)[C@@]4(C)C(=O)C[C@@H]32)C1 (stereo partly drawn) and state if its TCF/Wnt firefly luciferase reporter signal is at or above 1.
[out] condition met

[in] Please check the record Cc1ccc(Cl)c(Nc2ccccc2C(=O)O)c1Cl and state if its TCF/Wnt firefly luciferase reporter signal is at or above 1.
[out] condition met

[in] Please check the record C=C[C@]1(C)C=C2C(=O)[C@@]3(O)OC(=O)[C@@]4(CCCC(C)(C)[C@H]34)[C@@]2(O)CC1 and state if its TCF/Wnt firefly luciferase reporter signal is at or above 1.
[out] condition met

[in] Please check the record CN1CCc2c(c3ccccc3n2Cc2ccccc2)C1 and state if its TCF/Wnt firefly luciferase reporter signal is at or above 1.
[out] condition not met

[in] Please check the record CN(C)CCC(c1ccc(Br)cc1)c1ccccn1 (stereo not drawn) and state if its TCF/Wnt firefly luciferase reporter signal is at or above 1.
[out] condition met

[in] Please check the record OCc1cccnc1 and state if its TCF/Wnt firefly luciferase reporter signal is at or above 1.
[out] condition not met

[in] Please check the record CN(C)[C@@H]1C(O)=C(C(=O)NCN2CCCC2)C(=O)[C@@]2(O)C(O)=C3C(=O)c4c(O)cccc4[C@@](C)(O)[C@H]3C[C@@H]12 and state if its TCF/Wnt firefly luciferase reporter signal is at or above 1.
[out] condition met

[in] Please check the record O=c1ccn([C@@H]2O[C@H](COP(=O)(O)OP(=O)(O)OP(=O)(O)O)[C@@H](O)[C@H]2O)c(=O)[nH]1 and state if its TCF/Wnt firefly luciferase reporter signal is at or above 1.
[out] condition not met

[in] Please check the record CCCNC(=O)NS(=O)(=O)c1ccc(Cl)cc1 and state if its TCF/Wnt firefly luciferase reporter signal is at or above 1.
[out] condition not met

[in] Please check the record CCOc1ccc(C(=O)c2ccc(OC)c(O)c2O)cc1 and state if its TCF/Wnt firefly luciferase reporter signal is at or above 1.
[out] condition met

[in] Please check the record CC1(C)O[C@@H]2C[C@H]3[C@@H]4CCC5=CC(=O)C=C[C@]5(C)[C@@]4(F)[C@@H](O)C[C@]3(C)[C@]2(C(=O)CO)O1 and state if its TCF/Wnt firefly luciferase reporter signal is at or above 1.
[out] condition not met

[in] Please check the record O=c1[nH]cnc2c1ncn2[C@@H]1O[C@H](CO)[C@@H](O)[C@H]1O and state if its TCF/Wnt firefly luciferase reporter signal is at or above 1.
[out] condition not met

[in] Please check the record OCC(O)CN1CCN(c2ccccc2)CC1 (stereo not drawn) and state if its TCF/Wnt firefly luciferase reporter signal is at or above 1.
[out] condition not met

[in] Please check the record O=c1oc2ccccc2cc1O and state if its TCF/Wnt firefly luciferase reporter signal is at or above 1.
[out] condition not met

[in] Please check the record CC(=O)Oc1cc(C)c2c(c1C(OC(C)=O)OC(C)=O)Oc1c(c(C)c(OC(C)=O)c3c1C(OC(C)=O)OC3=O)OC2=O (stereo not drawn) and state if its TCF/Wnt firefly luciferase reporter signal is at or above 1.
[out] condition met
